TEST_PROTOCOL: NCI Yeast Anticancer Drug Screen. Data for the mec2-1 strain (AID 157)
EXPERIMENTAL_PARAMETERS: S. cerevisiae mec2-1 strain, at 50.0 µM, hits give high values
The panel holds about 79,000 compounds, 15% with a hit somewhere; the sample as a whole holds those more often.
Label Yes when growth inhibition >= -20%; otherwise No.

MOLECULE | ASSIGNED_CATEGORY
CC(=O)Nc1ccc2nc(C)cc(Cl)c2c1 | Yes

Lookup: State whether the measured growth inhibition reaches -20%, counting equality as reaching it, for `COc1ccc(-c2c(-c3ccccc3)oc(/N=C/c3ccccc3)c2-c2ccccc2)cc1`
Found: Yes

Lookup: Can `Brc1cc(Br)cc(-c2nnc(-c3ccc4ccccc4c3)o2)c1` be said to have growth inhibition at or above -20%?
Found: No

Lookup: Check this molecule for growth inhibition at or above -20%: COC1OC(COC(=O)c2ccccc2)C(SC(=O)c2ccccc2)C1OC(=O)c1ccccc1 (configuration not stated)
Found: Yes

Lookup: Given OC12CC/C(=N/OCc3ccccc3)CC1c1ccccc12 (configuration not stated) , state whether its growth inhibition is at least -20%.
Found: No

Lookup: Say whether `O=C(O)c1ncnn1-c1ccccc1` shows growth inhibition of -20% or more.
Found: Yes

Lookup: Dear colleague, could you confirm whether `Cc1ccc(NC(=O)C2CCN(C)CC2)cc1` has growth inhibition at or above -20%?
Found: Yes

---

TEST_PROTOCOL: NCI Yeast Anticancer Drug Screen. Data for the mec2-1 strain (AID 157)
EXPERIMENTAL_PARAMETERS: S. cerevisiae mec2-1 strain, at 50.0 µM, hits give high values
Compounds without any hit were thinned out: in the full panel of roughly 79,000, 15% have a hit. Calls of active or inactive are those of the source. No stated cut-off is given here; in the data, active means growth inhibition above about 70%; inactive means the rest.
Catalogue of growth inhibition values

Lookup: What measured growth inhibition goes with `S=C(N/N=C\c1ccccc1)Nc1ccccc1` ?
Found: -1.05% (inactive)

Lookup: // query growth inhibition value for entry `CCN(CC)CCOC(=O)c1c2nc3c(C(=O)OCCN(CC)CC)ccc(C)c3oc-2c(C)c(=O)c1N`
Found: 35.9% (inactive)

Lookup: Name the recorded growth inhibition for NC(N)=Nc1ccccc1OC1OC(CO)C(O)C(O)C1O (stereo unspecified) .
Found: 16.1% (inactive)

Lookup: Quick one: growth inhibition for `O=c1[nH]c2nc3ccccc3c(=O)n2/c1=C/c1ccc(O)cc1` ?
Found: 2.3% (inactive)

Lookup: So what's the measured growth inhibition for this one? OCC(O)C(O)C(O)c1nn(-c2ccc(Cl)cc2)c2nc3cc(Cl)c(Cl)cc3nc12 (stereo unspecified)
Found: -28.6% (inactive)

Lookup: Consider the compound shown here: `COc1ccc(C2C3=C(CCCC3=O)N(c3ccccc3)C3=C2C(=O)CCC3)cc1` What is its recorded growth inhibition?
Found: -18.4% (inactive)

Lookup: Form field: reported growth inhibition of `F[Si](c1ccccc1)(c1ccccc1)c1cccc2ccccc12`
Found: 98.6% (active)

Lookup: If you can, please state the reported growth inhibition value of `C/C(=N\N=C(/C)c1ccc(-c2ccccc2)cc1)c1ccc(-c2ccccc2)cc1` .
Found: -27.8% (inactive)

---

TEST_PROTOCOL: NCI Yeast Anticancer Drug Screen. Data for the cln2 rad14 strain (AID 165);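 note: 0% = growth equal to vehicle treated cultures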
EXPERIMENTAL_PARAMETERS: S. cerevisiae cln2 rad14 strain, at 50.0 µM, hits give high values
Compounds without any hit were thinned out: in the full panel of roughly 79,000, 15% have a hit.
MEASUREMENT_NAME: growth inhibition (%)
Expressed in %, but write only the number.

Worked examples follow.
COMPOUND | OBSERVED_MEASUREMENT
O=C(O)C(CS)NC1CC(=O)N(Cc2ccccc2)C1=O (configuration not stated) | -19.3
Cc1nc(CCCCCCCC(=O)O)ccc1O | -9.35
CCOC(=O)c1c2cccccc-2nc1Nc1cccc2c(C)ccnc12 | 9.7
COC(=O)c1ccccc1N=CCC(C)CCCC(C)(C)O (configuration not stated) | -8.4
Cc1cccc(NC(=O)COc2ccc(Cl)cc2C)c1 | 39.5
NC(CSC(=O)c1ccccc1)C(=O)O (configuration not stated) | -2.55

Next item in the queue.
Lookup: Return reported growth inhibition; argument: CC(C(=O)O)N(C)C(=O)c1cnc2ccccc2n1 (configuration not stated)
Found: 23
